Molecular target: human TRB3 protein (Homo sapiens, UniProt Q96RU7)
Construct: purchased Sino Biological 10731-H09B
Sequence (Q96RU7 1-358): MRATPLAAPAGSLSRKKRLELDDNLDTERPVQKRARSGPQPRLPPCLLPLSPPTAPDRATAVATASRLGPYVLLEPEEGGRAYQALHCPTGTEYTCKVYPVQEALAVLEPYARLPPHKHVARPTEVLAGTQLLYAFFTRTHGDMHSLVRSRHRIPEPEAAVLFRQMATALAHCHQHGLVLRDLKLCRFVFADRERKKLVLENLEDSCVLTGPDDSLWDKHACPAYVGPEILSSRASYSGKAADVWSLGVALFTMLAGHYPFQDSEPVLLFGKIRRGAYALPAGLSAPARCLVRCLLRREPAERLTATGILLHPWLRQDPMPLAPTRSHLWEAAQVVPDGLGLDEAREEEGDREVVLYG
Experiment: Microscale thermophoresis (MST) binding to TRB3
Settings: Monolith NT.115, recombinant human TRB3, read-out: binding constant (KD)
pKd: −log10 of the molar value.
Recorded Metric: pKd

What value of pKd has been recorded for this entry: Ac-GFFYGGWLTRLLQTK-OH [Ac-GFFY-A2]
~4.72

The values you see were collected from paper PMC11267363.
